Listed below: IC50 values for each entry.
SYSTEM NAME: HA-GST-Rheb (GTP-γ-S loaded) activating mTORC1 (Homo sapiens (Human), UniProt Q15382)
Sequence (Q15382 1-181): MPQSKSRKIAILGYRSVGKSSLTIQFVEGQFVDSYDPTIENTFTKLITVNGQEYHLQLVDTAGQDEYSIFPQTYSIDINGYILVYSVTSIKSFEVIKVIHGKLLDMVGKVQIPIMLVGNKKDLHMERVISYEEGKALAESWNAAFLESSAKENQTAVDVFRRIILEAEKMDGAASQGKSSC
PROCEDURE TEXT: Rheb-dependent in vitro kinase assay (Rheb-IVK; LanthaScreen or Western readout)
Assay type: biochemical
ASSAY SETUP: Rheb-dependent in vitro kinase assay; read-out: IVK IC50

COMPOUND	IC50
OCc1cc2c(Oc3ccccc3)c(Cl)c(Cl)cc2[nH]1 [I-250]	10 to 100 µM

Prompt: Kindly indicate its recorded IC50. Item: O=C(O)c1cc2c(Cl)cc(Oc3ccccc3)cc2n1Cc1c[nH]cn1 [I-173]
Response: 10 to 100 µM

Prompt: Kindly indicate its recorded IC50. Item: Clc1cccc(Sc2cccc3[nH]ccc23)c1 [I-243, 4-(3-chlorophenylthio)-1H-indole]
Response: 10 to 100 µM

Prompt: Kindly indicate its recorded IC50. Item: O=S(=O)(c1cccnc1)n1ccc2c(Sc3ccc(Cl)cc3)cc(Cl)cc21 [I-107]
Response: > 100 µM

###

SYSTEM NAME: HA-GST-Rheb (GTP-γ-S loaded) activating mTORC1 (Homo sapiens (Human))
PROCEDURE TEXT: Rheb-dependent in vitro kinase assay (Rheb-IVK; LanthaScreen or Western readout)
Assay type: biochemical
ASSAY SETUP: Rheb-dependent in vitro kinase assay; read-out: IVK IC50
pIC50: −log10 of the molar value.
Listed below: pIC50 values for each entry.

Would you please look over these solved cases?
COMPOUND	ASSAY VALUE
CN1CCN(c2cccc(NC(=O)c3cc4c(Sc5ccc(Cl)cc5Cl)cc(Cl)cc4[nH]3)c2)CC1	> 5.00
N#Cc1ccccc1COc1c(Cl)c(Cl)cc2[nH]c(CO)nc12	< 4.00
C[Si](C)(C)CC(O)c1cc2c(Oc3ccccc3)cc(Cl)cc2[nH]1 (stereo not shown)	4.00 to 5.00

Please look at the following compound next.
Prompt: Find pIC50 for OCc1nc2c(OCCc3c[nH]cn3)c(Cl)c(Cl)cc2[nH]1 on HA-GST-Rheb (GTP-γ-S loaded) activating mTORC1 (Homo sapiens (Human)) and write it down.
Response: < 4.00

###

Listed below: IC50 values for each entry.
SYSTEM NAME: HA-GST-Rheb (GTP-γ-S loaded) activating mTORC1 (Homo sapiens (Human), UniProt Q15382)
PROCEDURE TEXT: Rheb-dependent in vitro kinase assay (Rheb-IVK; LanthaScreen or Western readout)
Format: biochemical
ASSAY SETUP: Rheb-dependent in vitro kinase assay; read-out: IVK IC50

COMPOUND	IC50
CN1CCN(c2ccc(NC(=O)c3cc4c(Sc5ccc(Cl)cc5Cl)cc(Cl)cc4[nH]3)cc2C#N)CC1	< 10 µM
O=C(Nc1ccc(-c2cnco2)cc1)c1cc2c(Sc3ccc(Cl)cc3)cc(Cl)cc2[nH]1	< 10 µM
Cn1cc(-c2cc(Oc3ccccc3)cc3[nH]c(CO)cc23)cn1	> 100 µM
CN(C)Cc1cc2c(Br)cc(Sc3ccc(Cl)c(Cl)c3)cc2n1Cc1ccc(C(=O)N(C)C)cc1	> 100 µM
N#Cc1ccc(Cn2ccc3c(Sc4ccc(Cl)cc4Cl)cccc32)cc1	> 100 µM

Prompt: Find IC50 for OCc1nc2cc(OCc3ccccc3)c(Cl)cc2n1Cc1nc[nH]n1 on HA-GST-Rheb (GTP-γ-S loaded) activating mTORC1 (Homo sapiens (Human), UniProt Q15382) and write it down.
Response: 100 to 300 µM

Prompt: Find IC50 for O=C(c1ccc(Cl)cc1)c1cccc2[nH]ccc12 on HA-GST-Rheb (GTP-γ-S loaded) activating mTORC1 (Homo sapiens (Human), UniProt Q15382) and write it down.
Response: > 100 µM

Prompt: Find IC50 for OCc1cc2c(Br)cc(Oc3ccccc3)cc2n1Cc1nc[nH]n1 on HA-GST-Rheb (GTP-γ-S loaded) activating mTORC1 (Homo sapiens (Human), UniProt Q15382) and write it down.
Response: > 100 µM

Prompt: Find IC50 for Cn1c(CO)cc2c(Oc3ccc(Cl)cc3)cccc21 on HA-GST-Rheb (GTP-γ-S loaded) activating mTORC1 (Homo sapiens (Human), UniProt Q15382) and write it down.
Response: > 100 µM

Prompt: Find IC50 for CN(C)C(=O)c1ccc(Cn2c(C(=O)O)cc3c4ccccc4c(Sc4ccc(Cl)c(Cl)c4)cc32)cc1 on HA-GST-Rheb (GTP-γ-S loaded) activating mTORC1 (Homo sapiens (Human), UniProt Q15382) and write it down.
Response: < 10 µM
